Would you kindly list PHD2/PHD1 for each of these molecules?
Biological target: PHD1 (EGLN2) (Homo sapiens (Human))
Sequence (Q96KS0 whole entry): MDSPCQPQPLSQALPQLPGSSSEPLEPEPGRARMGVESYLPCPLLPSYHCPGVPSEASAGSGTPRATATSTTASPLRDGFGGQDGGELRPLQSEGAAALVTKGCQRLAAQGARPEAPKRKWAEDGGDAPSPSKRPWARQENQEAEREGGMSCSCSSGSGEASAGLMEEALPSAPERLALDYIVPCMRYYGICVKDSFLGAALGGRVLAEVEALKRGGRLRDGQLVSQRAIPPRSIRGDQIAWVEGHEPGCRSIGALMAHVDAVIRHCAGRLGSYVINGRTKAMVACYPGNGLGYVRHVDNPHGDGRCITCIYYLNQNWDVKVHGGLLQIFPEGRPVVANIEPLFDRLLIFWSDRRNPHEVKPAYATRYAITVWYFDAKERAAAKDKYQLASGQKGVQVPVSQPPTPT
Assay: HIF-PH assay (14CO2 capture), PHD1 enzyme inhibition
Type: biochemical
Conditions: Table 1; ratio of the IC50 of the compound for each enzyme
Format: numeric value only, no unit, no commentary.

# input Please report the recorded PHD2/PHD1 for `N#Cc1nc(C(=O)NC[C@H](Cc2ccccc2)C(=O)O)c(O)c2ccc(Oc3ccccc3)cc12` .
# output 14

# input `COc1ccc(CNc2ccc3c(O)c(C(=O)NCC(C)(C)C(=O)O)ncc3c2)cc1` ?
# output 6

# input N#Cc1nc(C(=O)NCC(C(=O)O)C2CC2)c(O)c2ccc(Oc3ccccc3F)cc12 (stereo not shown) ?
# output 14

# input `CC(C)(CC(=O)O)NC(=O)c1ncc2cc(Oc3ccccc3)ccc2c1O` ?
# output 23

# input `CC(C)(CNC(=O)c1nc(-c2cncc(F)c2)c2cc(Oc3ccccc3)ccc2c1O)C(=O)O` ?
# output 28

# input `O=C(NCC1(C(=O)O)CCC1)c1ncc2cc(Oc3ccccc3)ccc2c1O` ?
# output 7

# input `O=C(O)CCCNC(=O)c1ncc2ccc(Oc3ccccc3)cc2c1O` ?
# output 9

# input `CC(C)(CNC(=O)c1nc(C#N)c2cc(Oc3ccccc3Cl)ccc2c1O)C(=O)O` ?
# output 20

# input `CCNC(=O)N[C@H](CCNC(=O)c1nc(C#N)c2cc(Oc3ccccc3)ccc2c1O)C(=O)O` ?
# output 18.6

# input `CC(C)(CNC(=O)c1ncc2cc(Cc3ccccc3)ccc2c1O)C(=O)O` ?
# output 8
